Target: human IRAK4 (Homo sapiens, UniProt Q9NWZ3)
Construct: purchased Reaction Biology Corp
Sequence (Q9NWZ3 whole entry): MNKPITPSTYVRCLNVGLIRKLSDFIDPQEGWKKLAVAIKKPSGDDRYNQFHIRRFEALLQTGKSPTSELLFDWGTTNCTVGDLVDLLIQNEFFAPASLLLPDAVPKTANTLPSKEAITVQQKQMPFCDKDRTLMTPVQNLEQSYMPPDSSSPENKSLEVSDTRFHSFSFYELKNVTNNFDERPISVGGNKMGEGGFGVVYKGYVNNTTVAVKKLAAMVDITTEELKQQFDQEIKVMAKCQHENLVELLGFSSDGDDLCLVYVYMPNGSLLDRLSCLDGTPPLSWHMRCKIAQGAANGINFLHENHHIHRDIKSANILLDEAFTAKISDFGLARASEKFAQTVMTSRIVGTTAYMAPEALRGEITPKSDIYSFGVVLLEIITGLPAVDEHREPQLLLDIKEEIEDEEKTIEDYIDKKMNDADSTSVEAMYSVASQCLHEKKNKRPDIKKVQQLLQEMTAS
Test: In vitro IRAK4 kinase activity, 33P isotope-labeled kinase activity assay (Reaction Biology Corp)
Assay type: biochemical
# IC50 annotations
endpoint label: IC50

> print(dat)
                                   molecule  endpoint.label  reading
1  Cc1cc(-c2nc(C(=O)Nc3cn4cc(CCC(C)(C)O)nc4cc3-c3cccc(F)c3)co2)ccn1 [WX025]            IC50   0.7 nM
2  Cc1cc(-c2nc(C(=O)Nc3cn4cc(CCC(C)(C)O)nc4cc3-c3ccccc3F)co2)ccn1 [WX024]            IC50   0.7 nM
3  Cc1cc(-c2nc(C(=O)Nc3cn4cc(CCC(C)(C)O)nc4cc3N3CCNCC3)co2)ccn1 [WX003]            IC50   2.2 nM
4  COC(=O)N1CCN(c2cc3nc(CCC(C)(C)O)cn3cc2NC(=O)c2coc(-c3ccnc(C)c3)n2)CC1 [WX004]            IC50   1.3 nM
5  Cc1cc(-c2nc(C(=O)Nc3cn4cc(CCC(=O)O)nc4cc3N3CCC(CO)CC3)co2)ccn1 [WX020]            IC50   0.5 nM
6  Cc1cc(-c2nc(C(=O)Nc3cn4cc(C(C)(C)O)nc4cc3N3CCCCC3)co2)ccn1 [WX040]            IC50   1.2 nM
7  Cc1cc(-c2nc(C(=O)Nc3cn4cc(CCC(C)(C)O)nc4cc3C3CCCCC3)co2)ccn1 [WX022]            IC50   0.7 nM
8  Cc1cc(-c2nc(C(=O)Nc3cn4cc(CCC(=O)O)nc4cc3N3CCC(C)(C)CC3)co2)ccn1 [WX016]            IC50   0.9 nM
